# ASSAY COMMENT: in vitro
# Assay type: cell-based
# TEST CONTEXT: human; log c -9; 24 h; MTT; read-out: % of viability
Record form. Attribute: viability at 24 h, 1 nM. Fill in for each entry.

# input compound: C[C@]12CC[C@H]3[C@@H](CCC4=CC(=O)CC[C@@]43C)[C@@H]1CC[C@@H]2O [Testosterone, testosterone] ; wanted: its viability at 24 h, 1 nM
109%

Answer for every listed entry: what is its viability at 24 h, 1 nM? The entries follow.
1. C[C@]12CCC(=O)C[C@@H]1CC[C@@H]1[C@@H]2CC[C@]2(C)[C@@H](O)CC[C@@H]12 [5α-dihydrotestosterone]
2. C[C@]12CCC(=O)C=C1CC[C@@H]1[C@@H]2[C@@H](O)C[C@@]2(C)[C@H]1CC[C@]2(O)C(=O)CO [Cortisol, cortisol]
3. C[C@]12CCC(=O)C=C1CC[C@@H]1[C@@H]2[C@@H](O)C[C@]2(C=O)[C@@H](C(=O)CO)CC[C@@H]12 [Aldosterone, aldosterone]

1. 108%
2. 109%
3. 110%
